Target: human B1R (Homo sapiens, UniProt P46663)
Construct: expressed in transfected cells; host or cells: CHO K1 cells
Assay: Functional investigation on the bradykinin 1 receptor (B1R), cell-based fluorescent calcium-mobilization assay (FLIPR/Novostar), human
Settings: 10 μM test substance; CHO K1 cells stably transfected with human B1R gene; agonist Lys-Des-Arg9-bradykinin at EC80; % inhibition compared with maximum achievable inhibition; read-out: B1R antagonism, human [10 μM] % inhibition
quantity kind: inhibition at 10 µM (%)

COc1cc(C)c(S(=O)(=O)N2CCCCC2COCCC(=O)N2CCC(CNC(=O)c3ccncc3)(N3CCN(C)CC3)CC2)c(C)c1 (stereo not drawn) [Example 52] ... 100

I: CN1CCN(C2(CNC(=O)Cc3ccccc3)CCN(C(=O)CC3CCCCN3S(=O)(=O)c3cccc(C(F)(F)F)c3)CC2)CC1 (stereo not drawn) [Example 4]
II: COc1cc(C)c(S(=O)(=O)N2CCCCC2COCC(=O)N2CCC(CNC(C)=O)(N3CCN(c4ccncc4)CC3)CC2)c(C)c1 (stereo not drawn) [Example 22]
q: // compare measured inhibition at 10 µM between I and II ; output the lower one Please respond with the label that marks your chosen entry.
a: I

* * *

Target: human B1R (Homo sapiens, UniProt P46663)
Construct: expressed in transfected cells; host or cells: CHO K1 cells
Sequence (P46663 1-353): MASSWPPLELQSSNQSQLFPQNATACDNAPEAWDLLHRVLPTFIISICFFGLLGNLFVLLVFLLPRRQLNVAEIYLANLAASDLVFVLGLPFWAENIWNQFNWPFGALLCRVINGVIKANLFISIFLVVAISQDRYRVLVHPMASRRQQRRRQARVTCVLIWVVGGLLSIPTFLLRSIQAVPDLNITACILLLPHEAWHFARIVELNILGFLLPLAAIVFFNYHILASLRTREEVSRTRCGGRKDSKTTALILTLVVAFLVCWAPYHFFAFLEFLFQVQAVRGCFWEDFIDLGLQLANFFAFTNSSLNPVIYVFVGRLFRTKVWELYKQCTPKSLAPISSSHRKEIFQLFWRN
Experiment: Functional investigation on the bradykinin 1 receptor (B1R), cell-based fluorescent calcium-mobilization assay (FLIPR/Novostar), human
Settings: 10 μM test substance; CHO K1 cells stably transfected with human B1R gene; agonist Lys-Des-Arg9-bradykinin at EC80; % inhibition compared with maximum achievable inhibition; read-out: B1R antagonism, human [10 μM] % inhibition
quantity kind: inhibition at 10 µM (%)

CN1CCN(C2(CNC(=O)c3cccnc3)CCN(C(=O)CC3CCCCN3S(=O)(=O)c3cccc(C(F)(F)F)c3)CC2)CC1 (centres unmarked) ... 11
CC(=O)NCC1(N2CCN(c3ccncc3)CC2)CCN(C(=O)CC2CCCCN2S(=O)(=O)c2cccc(C(F)(F)F)c2)CC1 (centres unmarked) ... 99
CC(=O)NCC1(N2CCN(C)CC2)CCN(C(=O)CC2CCCCN2S(=O)(=O)c2cccc(C(F)(F)F)c2)CC1 (centres unmarked) ... 80
Cc1cc(S(=O)(=O)N2CCCCC2CCC(=O)N2CCC(CNC(=O)Cc3ccccc3)(N3CCN(C)CC3)CC2)c(C)cc1Cl (centres unmarked) ... 101
COc1cc(C)c(S(=O)(=O)N2CCCCC2COCC(=O)N2CCC(CNC(=O)c3cccnc3)(N3CCN(C)CC3)CC2)c(C)c1 (centres unmarked) ... 104

P: COc1cc(C)c(S(=O)(=O)N(C)CCOCC(=O)N2CCC(CNC(=O)c3ccncc3)(N3CCN(C)CC3)CC2)c(C)c1C
Q: CN1CCN(C2(CNC(=O)c3cccnc3)CCN(C(=O)CC(NS(=O)(=O)c3ccc4ccccc4c3)c3ccccc3)CC2)CC1 (centres unmarked)
q: // compare measured inhibition at 10 µM between P and Q ; output the lower one Please respond with the label that marks your chosen entry.
a: Q
(Q: 50%, P: 100%)

# credit: patent US8541573B2
